Data origin: ChEMBL document CHEMBL3745646

system: Schistosoma mansoni; test: Inhibition of Schistosoma mansoni PNP using immobilized capillary enzyme reactor at 200 uM by on-flow bidimensional liquid chromatography
quantityMeasured: inhibition (%)

Here are 4 compounds together with their reported answers.
Nc1nc2c(C(=O)c3c(Cl)cc(Cl)cc3Cl)c[nH]c2c(=O)[nH]1 ... 0
Nc1nc2c(C(=O)c3ccc(F)cc3)c[nH]c2c(=O)[nH]1 ... 0
Nc1nc2c(C(=O)c3ccc(I)cc3)c[nH]c2c(=O)[nH]1 ... 0
Nc1nc2c(C(=O)c3ccccc3)c[nH]c2c(=O)[nH]1 ... 0

1 = Nc1nc2c(C(=O)c3ccccc3Cl)c[nH]c2c(=O)[nH]1
2 = Nc1nc2c(C(=O)c3ccc(Br)cc3)c[nH]c2c(=O)[nH]1
3 = Nc1nc2c(C(=O)c3cccc(Cl)c3)c[nH]c2c(=O)[nH]1
4 = Nc1nc2c(C(=O)c3cccc([N+](=O)[O-])c3)c[nH]c2c(=O)[nH]1
5 = Nc1nc2c(C(=O)c3ccc(Cl)cc3)c[nH]c2c(=O)[nH]1
Input line: // smallest inhibition at index 0, largest at the end The response must list the labels following the requested ordering.
Output line: 1, 4, 5, 3, 2
